measured_on: Steroid 17-alpha-hydroxylase/17,20 lyase (Homo sapiens)
Sequence (P05093 whole entry): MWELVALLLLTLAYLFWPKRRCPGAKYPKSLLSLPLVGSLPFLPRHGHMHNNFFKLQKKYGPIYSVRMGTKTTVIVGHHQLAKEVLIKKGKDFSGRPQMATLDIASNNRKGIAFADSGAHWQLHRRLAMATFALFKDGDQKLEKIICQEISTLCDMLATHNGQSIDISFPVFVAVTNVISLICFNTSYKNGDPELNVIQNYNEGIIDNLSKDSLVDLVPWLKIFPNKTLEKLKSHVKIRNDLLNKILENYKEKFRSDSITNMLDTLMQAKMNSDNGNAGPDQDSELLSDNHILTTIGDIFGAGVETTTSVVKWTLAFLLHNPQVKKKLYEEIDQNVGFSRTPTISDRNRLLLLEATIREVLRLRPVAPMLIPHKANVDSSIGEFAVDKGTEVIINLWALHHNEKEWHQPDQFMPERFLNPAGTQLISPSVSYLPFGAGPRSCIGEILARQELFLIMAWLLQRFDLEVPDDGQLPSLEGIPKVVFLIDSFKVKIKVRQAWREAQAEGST
assay_metric: IC50 (nM)
I only need the number, in nM, no unit after it.

**Query** Give its IC50 value. Item: CC(C)C(O)(c1ccc(-c2ccccc2)cc1)c1c[nH]cn1 (racemic)
**Result** 33

**Query** Value lookup for IC50; key = COc1ccc(-c2cccc(C(O)(c3c[nH]cn3)C(C)C)c2)cc1 (racemic)
**Result** 130

**Query** Report IC50 for CNC(=O)Nc1cccc(-c2ccc(C(O)(c3c[nH]cn3)C(C)C)cc2)c1 (racemic) please.
**Result** 21

**Query** I would be grateful if you could share the reported IC50 for CC(C)C(O)(c1ccc(-c2ccc(F)cc2)cc1)c1c[nH]cn1 (racemic) .
**Result** 27

**Query** Quick one: IC50 of CNC(=O)c1cccc(-c2ccc(C(O)(c3c[nH]cn3)C(C)C)cc2)c1 (racemic) ?
**Result** 44

**Query** Requested read-out: IC50. Entry: CC(=O)Nc1cccc(-c2ccc([C@@](O)(c3cnc[nH]3)C(C)C)cc2)n1
**Result** 92

**Query** Suppose we examine the molecule CC(=O)Nc1cccc(-c2ccc(C(C)(O)c3c[nH]cn3)cc2)c1 (racemic) ; what IC50 value has been reported?
**Result** 38

**Query** Would you kindly share the measured IC50 for CC(=O)Nc1cccc(-c2ccc([C@@](O)(c3c[nH]cn3)C(C)C)cc2)c1 ?
**Result** 340

**Query** Would you kindly share the measured IC50 for CC(C)C(O)(c1cccc(-c2ccc(Cl)cc2)c1)c1c[nH]cn1 (racemic) ?
**Result** 49

* * *

measured_on: Steroid 17-alpha-hydroxylase/17,20 lyase (Homo sapiens)
assay_metric: pIC50
pIC50 here: minus log base 10 of the concentration, concentration in moles per litre.

**Query** // lookup pIC50 for CC(=O)Nc1cccc(-c2ccc(C(O)(c3c[nH]cn3)C(C)C)cc2)n1 (racemic)
**Result** 7.44

**Query** Which value of pIC50 has been reported for CC(=O)Nc1ccc(-c2ccc(C(O)(c3c[nH]cn3)C(C)C)cc2)cc1 (racemic) in the records?
**Result** 6.92

**Query** What value of measured pIC50 is listed for CC(=O)Nc1cccc(-c2ccc([C@](O)(c3c[nH]cn3)C(C)C)cc2)c1 ?
**Result** 7.59

**Query** pIC50 lookup needed for CC(=O)Nc1cccc(-c2ccc(C(O)(c3c[nH]cn3)C(C)C)cc2)c1 (racemic) , thanks.
**Result** 7.62

**Query** What measured pIC50 goes with CC[C@](O)(c1ccc(-c2cccc(NC(C)=O)c2)cc1)c1c[nH]cn1 ?
**Result** 7.66

* * *

Observed pIC50 for Steroid 17-alpha-hydroxylase/17,20 lyase (Rattus norvegicus), reported per entry below.
Kindly note that pIC50 refers to -log10 of the concentration in mol/L and answer with the value alone.

**Query** I have this molecule here, CC(=O)Nc1cccc(-c2ccc([C@@](O)(c3c[nH]cn3)C(C)C)cc2)c1 , and I need its recorded pIC50.
**Result** 6.11

**Query** What value of measured pIC50 is listed for CC(=O)Nc1ccc(-c2ccc(C(O)(c3c[nH]cn3)C(C)C)cc2)cc1 (racemic) ?
**Result** 7.62

**Query** Any idea what pIC50 was measured for CC[C@](O)(c1ccc(-c2cccc(NC(C)=O)c2)cc1)c1c[nH]cn1 ?
**Result** 7.72

**Query** Entry CC(=O)Nc1cccc(-c2ccc([C@](O)(c3cnc[nH]3)C(C)C)cc2)n1 : reported pIC50 = ?
**Result** 7.48

**Query** Given the entry CCC(O)(c1ccc(-c2cccc(NC(C)=O)c2)cc1)c1c[nH]cn1 (racemic) , report its measured pIC50.
**Result** 7.60

**Query** # get_value(readout='pIC50', item= CNC(=O)c1cccc(-c2ccc(C(O)(c3c[nH]cn3)C(C)C)cc2)c1 (racemic) )
**Result** 7.31

**Query** Using the record for CC(C)C(O)(c1ccc(-c2ccc(Cl)cc2)cc1)c1c[nH]cn1 (racemic) , report its pIC50.
**Result** 7.54

**Query** Could you tell me which pIC50 is on file for CC(=O)Nc1cccc(-c2ccc([C@](O)(c3c[nH]cn3)C(C)C)cc2)c1 ?
**Result** 7.85

* * *

Field: Ratio IC50. Provide a value for each of the molecules that follow.
Species on record: Homo sapiens
protocol: Ratio of IC50 for human CYP3A4 to IC50 for human 17,20-lyase
Answer with a bare number; do not write a unit.

**Query** Which Ratio IC50 is reported for this molecule? CC(C)C(O)(c1ccc(-c2ccc(Cl)cc2)cc1)c1c[nH]cn1 (racemic)
**Result** 271

**Query** Need Ratio IC50 of CC(C)C(O)(c1ccc(-c2ccc(F)cc2)cc1)c1c[nH]cn1 (racemic) , thanks.
**Result** 196

**Query** Give the measured Ratio IC50 of CC(C)C(O)(c1cccc(-c2ccc(F)cc2)c1)c1c[nH]cn1 (racemic) .
**Result** 111

* * *

For each of the compounds below, state its pIC50.
Scale: pIC50 equals -log10([C]), with [C] in mol/L.

**Query** Given the entry CCC(O)(c1ccc(-c2cccc(NC(C)=O)c2)cc1)c1c[nH]cn1 (racemic) , what pIC50 was observed with Steroid 17-alpha-hydroxylase/17,20 lyase (Homo sapiens)?
**Result** 7.40

**Query** Record CC(C)C(O)(c1ccc(-c2ccc(Cl)cc2)cc1)c1c[nH]cn1 (racemic) : what is its pIC50 with Steroid 17-alpha-hydroxylase/17,20 lyase (Homo sapiens)?
**Result** 7.55

**Query** Query for Steroid 17-alpha-hydroxylase/17,20 lyase (Homo sapiens): what pIC50 does the record show for CC(=O)Nc1cccc(-c2ccc(C(O)(c3c[nH]cn3)C3CC3)cc2)c1 (racemic) ?
**Result** 7.35

**Query** GET /values?readout=pIC50&system=Steroid 17-alpha-hydroxylase/17,20 lyase (Homo sapiens)&item= CC(=O)Nc1cccc(-c2ccc([C@](O)(c3cnc[nH]3)C(C)C)cc2)n1
**Result** 7.59

**Query** Item CC(C)C(O)(c1cccc(-c2ccc(F)cc2)c1)c1c[nH]cn1 (racemic) with Steroid 17-alpha-hydroxylase/17,20 lyase (Homo sapiens) - pIC50?
**Result** 7.72

* * *

assay_metric: pIC50
Conceptually, pIC50 converts a concentration in mol/L into minus its log10.

**Query** Any idea what pIC50 came out for COc1ccc(-c2ccc(C(O)(c3c[nH]cn3)C(C)C)cc2)cc1 (racemic) on Cytochrome P450 3A4 (Homo sapiens)?
**Result** 5.31

**Query** Write down the reported pIC50 of CNC(=O)c1cccc(-c2ccc(C(O)(c3c[nH]cn3)C(C)C)cc2)c1 (racemic) , test system: Cytochrome P450 3A4 (Homo sapiens).
Sequence (P08684 whole entry): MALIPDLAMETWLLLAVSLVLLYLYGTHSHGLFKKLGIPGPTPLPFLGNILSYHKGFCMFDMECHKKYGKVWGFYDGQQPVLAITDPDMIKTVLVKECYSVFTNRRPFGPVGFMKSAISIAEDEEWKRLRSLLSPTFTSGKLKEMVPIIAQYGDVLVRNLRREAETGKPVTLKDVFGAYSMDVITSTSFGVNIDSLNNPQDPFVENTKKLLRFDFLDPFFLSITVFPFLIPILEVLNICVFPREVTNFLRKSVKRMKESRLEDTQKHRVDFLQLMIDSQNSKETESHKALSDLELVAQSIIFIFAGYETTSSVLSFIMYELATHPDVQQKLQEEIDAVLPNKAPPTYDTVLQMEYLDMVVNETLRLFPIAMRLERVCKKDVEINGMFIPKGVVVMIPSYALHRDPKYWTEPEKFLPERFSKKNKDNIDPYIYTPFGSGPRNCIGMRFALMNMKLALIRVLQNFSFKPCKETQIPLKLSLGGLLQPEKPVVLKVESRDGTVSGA
**Result** 5.09

**Query** Identify the measured pIC50 of CC(C)C(O)(c1cccc(-c2ccc(Cl)cc2)c1)c1c[nH]cn1 (racemic) for Cytochrome P450 3A4 (Homo sapiens).
**Result** 5.62

**Query** Can you look up pIC50 on Cytochrome P450 3A4 (Homo sapiens) for CC(C)C(O)(c1ccc(-c2ccc(F)cc2)cc1)c1c[nH]cn1 (racemic) ?
**Result** 5.28

**Query** Look up pIC50 with Cytochrome P450 3A4 (Homo sapiens) for this molecule: CC(=O)Nc1ccc(-c2ccc(C(O)(c3c[nH]cn3)C(C)C)cc2)cc1 (racemic)
**Result** 6.00

**Query** Lookup: pIC50 / Cytochrome P450 3A4 (Homo sapiens) / CNC(=O)Nc1cccc(-c2ccc(C(O)(c3c[nH]cn3)C(C)C)cc2)c1 (racemic)
**Result** 5.26

**Query** What reported pIC50 corresponds to CNS(=O)(=O)c1cccc(-c2ccc(C(O)(c3cnc[nH]3)C(C)C)cc2)c1 (racemic) on Cytochrome P450 3A4 (Homo sapiens)?
**Result** 5.48

**Query** What pIC50 appears in the records for this molecule with Cytochrome P450 3A4 (Homo sapiens)? CC(C)C(O)(c1ccc(-c2ccccc2)cc1)c1c[nH]cn1 (racemic)
**Result** 5.43

**Query** // fetch Cytochrome P450 3A4 (Homo sapiens) pIC50 for CC(C)C(O)(c1ccc(-c2ccc(Cl)cc2)cc1)c1c[nH]cn1 (racemic)
**Result** 5.12

From: ChEMBL document CHEMBL1765076
